Attribution: paper PMC12592420

- PROTOCOL_SUMMARY: in vitro
- TEST_PARAMETERS: both, human, hepatocytes
READOUT_NAME: hepatocyte CLint at 1 µM

* CCN(C(=O)c1cc(F)ccc1Oc1cncnc1N1CC2(CCN(C[C@H]3CC[C@H](NS(=O)(=O)CC)CC3)CC2)C1)C(C)C | 2.92 µL/min/1e6 cells
* Cn1c(=O)c2c(ncn2C)n(C)c1=O | 2.61 µL/min/1e6 cells
* Cc1c(C)c2c(c(C)c1O)CCC(C)(COc1ccc(CC3SC(=O)NC3=O)cc1)O2 (stereo not shown) | 26.8 µL/min/1e6 cells
* O=C(O)c1cc(-c2ccc(F)cc2F)ccc1O | 4.29 µL/min/1e6 cells
